Source listed as patent US20150051202A1.

- target desc: SYK (Homo sapiens, UniProt P43405)
- Construct: purchased BPS Bioscience, CA, USA
- assay summary: SYK enzyme assay (Flash plate assay / Caliper mobility shift assay)
- Type: biochemical
- measurement conditions: at 3 μM; 100% corresponds to zero effect, −50% corresponds to IC50
Can you tell me SYK (enzyme assay) % at 3 μM for the items I'm about to list?

Worked cases, SYK (enzyme assay) % at 3 μM given:
[
  {
    "mol smiles": "COc1cccc(Nc2nc3cncc(-c4ccccc4)n3n2)c1",
    "experimental endpoint": "SYK (enzyme assay) % at 3 μM",
    "observed value": "−2@3%"
  },
  {
    "mol smiles": "Cn1cc(-c2cncc3nc(NC(=O)C4CCNCC4)nn23)cn1",
    "experimental endpoint": "SYK (enzyme assay) % at 3 μM",
    "observed value": "4@3%"
  },
  {
    "mol smiles": "COc1cccc(Nc2nc3cncc(-c4cnn(C)c4)n3n2)c1",
    "experimental endpoint": "SYK (enzyme assay) % at 3 μM",
    "observed value": "−33@3%"
  }
]

Please look at the items below and tell me SYK (enzyme assay) % at 3 μM for each one, in order.
1. CN1CCN(c2ccc(Nc3nc4cncc(Nc5cnn(C)c5)n4n3)cc2)CC1
2. c1cncc(Nc2nc3cncc(-c4ccc(N5CCOCC5)cc4)n3n2)c1

−23@3%
1.5@3%

###

- target desc: SYK (Homo sapiens)
pIC50: −log10 of the molar value.
experimental endpoint: pIC50

Worked cases, pIC50 given:
[
  {
    "mol smiles": "Cc1cc(Nc2nc3cncc(-c4cnn(C)c4)n3n2)ccc1CN1CCOCC1",
    "observed value": "5.30 to 6.00"
  },
  {
    "mol smiles": "COc1cc(Nc2nc3cncc(-c4cnn(CCC(C)C)c4)n3n2)ccc1N1CCN(C)CC1",
    "observed value": "5.30 to 6.00"
  },
  {
    "mol smiles": "Cc1cc(Nc2nc3cncc(-c4cnc5ccccc5c4)n3n2)ccc1N1CCN(C)CC1",
    "observed value": "5.30 to 6.00"
  },
  {
    "mol smiles": "CC(=O)Nc1ccc(Nc2nc3cncc(-c4cnn(C)c4)n3n2)cc1C",
    "observed value": "5.30 to 6.00"
  },
  {
    "mol smiles": "Cn1cc(-c2cncc3nc(Nc4ccc(-c5ccncc5)cc4)nn23)cn1",
    "observed value": "> 6.00"
  },
  {
    "mol smiles": "CN(C)Cc1nc2cc(Nc3nc4cncc(-c5cnn(C)c5)n4n3)ccc2[nH]1",
    "observed value": "5.30 to 6.00"
  },
  {
    "mol smiles": "COc1cc(Nc2nc3cncc(-c4cnn(C5CCOCC5)c4)n3n2)ccc1N1CCN(C)CC1",
    "observed value": "5.30 to 6.00"
  },
  {
    "mol smiles": "Cn1cc(-c2cncc3nc(Nc4ccc5c(c4)NC(=O)C5(C)C)nn23)cn1",
    "observed value": "> 6.00"
  },
  {
    "mol smiles": "CN(C)Cc1nc2cc(Nc3nc4cncc(-c5cnc6ccccc6c5)n4n3)ccc2[nH]1",
    "observed value": "5.30 to 6.00"
  },
  {
    "mol smiles": "COc1cc(Nc2nc3cncc(-c4cnn(C)c4)n3n2)ccc1NC(=O)C1CCNCC1",
    "observed value": "5.00 to 5.30"
  }
]

Please look at the items below and tell me pIC50 for each one, in order.
1. COc1cc(Nc2nc3cncc(-c4ccccc4-c4ccccc4)n3n2)cc(OC)c1
2. Cn1cc(-c2cncc3nc(Nc4ccc(S(C)(=O)=O)cc4)nn23)cn1
3. CC(C)(C#N)c1ccc(-c2cncc3nc(Nc4ccc(N5CCOCC5)cc4)nn23)cc1
4. COc1cc(Nc2nc3cncc(-c4ccc(O)cc4)n3n2)ccc1N1CCN(C)CC1

5.30 to 6.00
5.30 to 6.00
5.30 to 6.00
> 6.00

Please look at the items below and tell me pIC50 for each one, in order.
1. CNS(=O)(=O)c1ccc(-c2cncc3nc(Nc4ccc(N5CCN(C)CC5)c(OC)c4)nn23)cc1
2. Cn1cc(-c2cncc3nc(Nc4ccc5c(c4)OCCO5)nn23)cn1
3. Cc1cc(Nc2nc3cncc(-c4ccc(N5CCOCC5)cc4)n3n2)ccc1N1CCN(C)CC1
4. Cc1cc(Nc2nc3cncc(-c4cnn(C)c4)n3n2)ccc1NC(=O)C1CCOCC1
5. Cc1ccc(-c2cncc3nc(Nc4ccc(N5CCOCC5)cc4)nn23)o1

5.30 to 6.00
5.30 to 6.00
5.30 to 6.00
5.00 to 5.30
> 6.00

Please look at the items below and tell me pIC50 for each one, in order.
1. COc1cc(Nc2nc3cncc(-c4cnn(C)c4)n3n2)ccc1NC(=O)C1CCOCC1
2. Cn1cc(-c2cncc3nc(Nc4cccc(C#N)c4)nn23)cn1
3. Cn1cc(-c2cncc3nc(Nc4ccc(C(=O)N5CCOCC5)cc4)nn23)cn1

1. 5.00 to 5.30
2. 5.00 to 5.30
3. 5.30 to 6.00

Please look at the items below and tell me pIC50 for each one, in order.
1. Cn1cc(-c2c(-c3ccccc3)ncc3nc(Nc4ccc(N5CCOCC5)cc4)nn23)cn1
2. Cc1cc(Nc2nc3cncc(-c4ccc5c(cnn5C)c4)n3n2)ccc1N1CCN(C)CC1
3. Cn1cc(-c2cncc3nc(Nc4ccc(CN5CCOCC5)cc4)nn23)cn1

["> 6.00", "> 6.00", "5.30 to 6.00"]

###

Read-out record for GCN2 (Homo sapiens, UniProt Q9P2K8): pIC50
pIC50: −log10 of the molar value.

Please look at the items below and tell me pIC50 for each one, in order.
1. COc1cc(Nc2nc3cncc(-c4ccc(N5CCOCC5)cc4)n3n2)ccc1N1CCN(C)CC1
2. Cc1cc(Nc2nc3cncc(-c4cnn(C)c4)n3n2)ccc1NC(=O)C1CCOCC1
3. Cc1cc(Nc2nc3cncc(-c4cnn(C)c4)n3n2)ccc1CN1CCOCC1
4. Cc1cc(Nc2nc3cncc(-c4cnn(C)c4)n3n2)ccc1NC(=O)C1CCC1
5. CN1CCN(c2ccc(Nc3nc4cncc(Nc5cnn(C)c5)n4n3)cc2)CC1
6. Fc1ccc(Nc2nc3cnc(Cl)cn3n2)cc1

> 6.00
> 6.00
> 6.00
> 6.00
5.30 to 6.00
5.30 to 6.00

Please look at the items below and tell me pIC50 for each one, in order.
1. COc1cc(Nc2nc3cncc(-c4cnn(CCN5CCOCC5)c4)n3n2)ccc1N1CCN(C)CC1
2. Cn1cc(-c2cncc3nc(Nc4ccc(CN5CCOCC5)cc4)nn23)cn1
3. COc1cc(N2CCN(C)CC2)ccc1Nc1nc2cncc(-c3cnn(C)c3)n2n1
4. COc1cc(Nc2nc3cncc(-c4cnn(C)c4)n3n2)ccc1NC(=O)C1CCNCC1
5. Cc1cc(Nc2nc3cncc(-c4cccc(C(N)=O)c4)n3n2)ccc1N1CCN(C)CC1
6. CN1CCN(c2ccc(Nc3nc4cncc(-c5cnn(CCN6CCOCC6)c5)n4n3)cc2)CC1
7. c1cc(N2CCOCC2)ccc1Nc1nc2cncc(-c3cnn(CCN4CCOCC4)c3)n2n1

> 6.00
> 6.00
5.00 to 5.30
> 6.00
5.30 to 6.00
> 6.00
5.30 to 6.00

###

- target desc: SYK (Homo sapiens, UniProt P43405)
- Construct: purchased BPS Bioscience, CA, USA
- assay summary: SYK enzyme assay (Flash plate assay / Caliper mobility shift assay)
- Type: biochemical
- measurement conditions: at 3 μM; 100% corresponds to zero effect, −50% corresponds to IC50
Marks after values point to notes of the source that are not given here.
Can you tell me SYK (enzyme assay) % at 3 μM for the items I'm about to list?

Worked cases, SYK (enzyme assay) % at 3 μM given:
[
  {
    "mol smiles": "COc1cccc(Nc2nc3cnc(C)cn3n2)c1",
    "observed value": "1@3%"
  },
  {
    "mol smiles": "CN1C(=O)Cc2cc(Nc3nc4cncc(-c5cnn(CCN6CCOCC6)c5)n4n3)ccc21",
    "observed value": "−32@3%"
  },
  {
    "mol smiles": "Fc1ccc(-c2cncc3nc(Nc4cccnc4)nn23)cc1",
    "observed value": "−6@3%"
  },
  {
    "mol smiles": "Clc1cn2nc(Nc3cccnc3)nc2cn1",
    "observed value": "1@3%"
  },
  {
    "mol smiles": "O=C1Cc2cc(Nc3nc4cncc(-c5ccc(CN6CCOCC6)s5)n4n3)ccc2N1",
    "observed value": "−34@3%"
  }
]

Please look at the items below and tell me SYK (enzyme assay) % at 3 μM for each one, in order.
1. Cn1ncc2cc(-c3cncc4nc(Nc5ccc(S(C)(=O)=O)cc5)nn34)ccc21
2. Cc1cc(Nc2nc3cncc(-c4cnn(CCN5CCOCC5)c4)n3n2)ccc1N1CCN(C)CC1
3. COc1cccc(Nc2nc3cnc(Br)cn3n2)c1
4. Cn1ncc2cc(-c3cncc4nc(Nc5cccnc5)nn34)ccc21

["−18@3 * %", "−32@3%", "−15@3%", "−9@3%"]
